- study_target: RET (Homo sapiens, UniProt P07949)
- Construct: expressed in transfected cells; host or cells: yeast
- Sequence (P07949 29-1114): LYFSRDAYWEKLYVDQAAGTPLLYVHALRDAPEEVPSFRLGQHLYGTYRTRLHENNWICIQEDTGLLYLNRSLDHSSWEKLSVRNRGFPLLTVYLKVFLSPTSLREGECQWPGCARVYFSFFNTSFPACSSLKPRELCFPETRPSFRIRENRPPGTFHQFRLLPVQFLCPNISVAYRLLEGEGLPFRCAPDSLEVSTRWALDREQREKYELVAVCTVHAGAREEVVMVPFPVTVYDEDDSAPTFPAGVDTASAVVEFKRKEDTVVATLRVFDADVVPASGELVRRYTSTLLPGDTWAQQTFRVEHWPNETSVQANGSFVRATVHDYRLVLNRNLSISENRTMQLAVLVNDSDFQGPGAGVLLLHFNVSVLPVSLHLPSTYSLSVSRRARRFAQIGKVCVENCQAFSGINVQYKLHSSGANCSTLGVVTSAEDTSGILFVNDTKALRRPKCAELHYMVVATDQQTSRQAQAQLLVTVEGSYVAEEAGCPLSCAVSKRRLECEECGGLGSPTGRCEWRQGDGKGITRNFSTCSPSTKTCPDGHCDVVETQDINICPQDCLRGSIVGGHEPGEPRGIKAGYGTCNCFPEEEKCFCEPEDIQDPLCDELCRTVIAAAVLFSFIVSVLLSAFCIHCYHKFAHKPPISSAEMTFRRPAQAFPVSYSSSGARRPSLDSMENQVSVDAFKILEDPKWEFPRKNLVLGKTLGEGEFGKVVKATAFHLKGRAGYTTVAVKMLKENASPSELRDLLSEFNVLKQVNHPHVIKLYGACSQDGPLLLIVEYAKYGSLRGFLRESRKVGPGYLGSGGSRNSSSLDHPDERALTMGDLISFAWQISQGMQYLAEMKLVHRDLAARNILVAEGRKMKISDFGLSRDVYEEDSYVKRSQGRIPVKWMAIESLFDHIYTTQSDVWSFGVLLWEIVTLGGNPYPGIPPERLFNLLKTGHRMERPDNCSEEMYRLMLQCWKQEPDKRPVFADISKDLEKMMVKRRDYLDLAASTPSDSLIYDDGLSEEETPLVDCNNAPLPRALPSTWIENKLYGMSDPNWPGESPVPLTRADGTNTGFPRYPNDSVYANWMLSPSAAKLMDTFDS
- protocol_summary: Yeast growth assay, specificity profiling
- Assay type: cell-based
- Design: key: “−” indicates no growth restoration i.e. no activity against the particular kinase; “+”, “++”, and “+++” indicate activity detected by restoration of growth, classified into three categories of potency; “+”, “++”, and “+++” indicate activity detected by restoration of growth, classified into three categories of potency; “+”, “++”, and “+++” indicate activity detected by restoration of growth, classified into three categories of potency
- conditions: 7 concentrations between 0.2 and 100 μM
quantity_measured: RET growth restoration

Nc1ccc(-c2nc3cnccn3c2Nc2cccc(Cl)c2)cc1 ... −
Clc1cccc(Nc2c(-c3ccccc3)nc3cnccn23)c1 ... +
CC(=O)Nc1ccc(-c2nc3c(C)nccn3c2Nc2cccc(Cl)c2)cc1 ... −
Cc1nccn2c(Nc3cccc(Cl)c3)c(-c3ccccc3)nc12 ... −

Q: Identify the measured RET growth restoration of `Cc1cccc(Nc2c(-c3ccccc3)nc3cnccn23)c1` for RET (Homo sapiens, UniProt P07949).
A: −

====

- study_target: EphB4 (Homo sapiens, UniProt P54760)
- Construct: expressed in transfected cells; host or cells: yeast
- Sequence (P54760 16-987): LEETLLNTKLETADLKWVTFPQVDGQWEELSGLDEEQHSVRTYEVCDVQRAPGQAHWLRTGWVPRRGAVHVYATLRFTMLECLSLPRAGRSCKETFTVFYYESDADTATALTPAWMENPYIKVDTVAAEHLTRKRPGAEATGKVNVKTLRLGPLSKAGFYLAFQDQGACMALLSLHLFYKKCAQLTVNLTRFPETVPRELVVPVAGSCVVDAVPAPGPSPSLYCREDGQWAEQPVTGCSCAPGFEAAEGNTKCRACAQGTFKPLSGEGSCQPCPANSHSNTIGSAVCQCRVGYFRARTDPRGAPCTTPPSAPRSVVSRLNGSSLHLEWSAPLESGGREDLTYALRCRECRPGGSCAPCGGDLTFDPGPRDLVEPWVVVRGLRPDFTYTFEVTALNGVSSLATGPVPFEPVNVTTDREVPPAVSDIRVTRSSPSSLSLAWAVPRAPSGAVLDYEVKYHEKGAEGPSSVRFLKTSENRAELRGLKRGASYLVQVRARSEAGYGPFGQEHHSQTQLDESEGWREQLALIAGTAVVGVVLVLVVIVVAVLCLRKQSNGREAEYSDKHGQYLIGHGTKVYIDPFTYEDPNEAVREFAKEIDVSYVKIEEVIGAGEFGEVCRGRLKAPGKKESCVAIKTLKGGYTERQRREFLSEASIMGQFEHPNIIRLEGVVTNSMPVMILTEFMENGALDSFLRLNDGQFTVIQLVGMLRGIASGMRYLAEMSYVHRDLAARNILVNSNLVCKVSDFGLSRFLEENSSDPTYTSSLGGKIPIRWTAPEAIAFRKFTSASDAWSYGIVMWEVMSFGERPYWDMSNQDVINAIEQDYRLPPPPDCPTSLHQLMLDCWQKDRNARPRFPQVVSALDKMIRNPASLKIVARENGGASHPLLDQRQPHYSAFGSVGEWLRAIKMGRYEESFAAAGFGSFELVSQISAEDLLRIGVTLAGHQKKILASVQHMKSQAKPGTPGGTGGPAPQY
- protocol_summary: Yeast growth assay, specificity profiling
- Type: cell-based
- conditions: 7 concentrations between 0.2 and 100 μM
quantity_measured: EphB4 growth restoration

Cc1cccc(Nc2c(-c3ccccc3)nc3cnccn23)c1 [compound 34] ... + −
COc1cccc(-c2nc3cnccn3c2Nc2cccc(Cl)c2)c1 [compound 7] ... +
CC(=O)Nc1ccc(-c2nc3cnccn3c2Nc2cccc(Cl)c2)cc1 [compound 8] ... ++
Clc1ccc(Nc2c(-c3ccccc3)nc3cnccn23)cc1 [compound 16] ... +

Q: I have this compound here, Cc1nccn2c(Nc3ccccc3)c(-c3ccccc3)nc12 [compound 39] , and I need its recorded EphB4 growth restoration.
A: +++

====

- study_target: RET (Homo sapiens, UniProt P07949)
- Construct: expressed in transfected cells; host or cells: yeast
- protocol_summary: Yeast growth assay, specificity profiling
- Type: cell-based
- Set-up: key: “−” indicates no growth restoration i.e. no activity against the particular kinase; “+”, “++”, and “+++” indicate activity detected by restoration of growth, classified into three categories of potency; “+”, “++”, and “+++” indicate activity detected by restoration of growth, classified into three categories of potency; “+”, “++”, and “+++” indicate activity detected by restoration of growth, classified into three categories of potency
- conditions: 7 concentrations between 0.2 and 100 μM
quantity_measured: RET growth restoration

Would you please look over these solved cases?
CNc1nccn2c(Nc3cccc(Cl)c3)c(-c3ccccc3)nc12 [compound 20] ... −
Cc1cccc(Nc2c(-c3ccccc3)nc3c(C)nccn23)c1 [compound 43] ... −
Clc1ccc(Nc2c(-c3ccccc3)nc3cnccn23)cc1 [compound 16] ... +
COc1cccc(-c2nc3c(C)nccn3c2Nc2cccc(C)c2)c1 [compound 42] ... −

Q: Can you look up the measured RET growth restoration of CC(=O)Nc1ccc(-c2nc3cnccn3c2Nc2cccc(Cl)c2)cc1 [compound 8] for me?
A: −

Q: Can you share its RET growth restoration? I mean this compound: COc1cccc(-c2nc3cnccn3c2Nc2cccc(Cl)c2)c1 [compound 7]
A: + −
